Test system: Glycine max
test.summary: Inhibition of soybean 5-lipoxygenase at 100 uM by UV-absorbance based enzyme assay
value.kind: inhibition (%)

A: Cc1ccc(/C=C2\Oc3ccccc3C2=O)cc1
B: COc1cc(O)c(C(=O)/C=C/c2ccccc2OC)c(OC)c1
C: COc1cc(OC)c2c(c1)O/C(=C\c1ccc(C)cc1)C2=O
input: Sort the 3 compounds by inhibition; largest first, smallest last. // list labels; follow requested order
output: A, B, C
(A: 32.4%, B: 20%, C: 0%)

P: O=C1/C(=C/c2ccc(Cl)cc2)Oc2ccccc21
Q: COc1ccc(/C=C/C(=O)c2c(O)cc(OC)cc2OC)cc1
input: For the pair P and Q , which member has the lower inhibition number? Selection: enter the item's label.
output: Q
